# testTarget: T1, human plasma Kallikrein (human, UniProt P03952 20-638)
# T1 construct: also called hPK; human PK
# T1 sequence (P03952 20-638 limits assumed): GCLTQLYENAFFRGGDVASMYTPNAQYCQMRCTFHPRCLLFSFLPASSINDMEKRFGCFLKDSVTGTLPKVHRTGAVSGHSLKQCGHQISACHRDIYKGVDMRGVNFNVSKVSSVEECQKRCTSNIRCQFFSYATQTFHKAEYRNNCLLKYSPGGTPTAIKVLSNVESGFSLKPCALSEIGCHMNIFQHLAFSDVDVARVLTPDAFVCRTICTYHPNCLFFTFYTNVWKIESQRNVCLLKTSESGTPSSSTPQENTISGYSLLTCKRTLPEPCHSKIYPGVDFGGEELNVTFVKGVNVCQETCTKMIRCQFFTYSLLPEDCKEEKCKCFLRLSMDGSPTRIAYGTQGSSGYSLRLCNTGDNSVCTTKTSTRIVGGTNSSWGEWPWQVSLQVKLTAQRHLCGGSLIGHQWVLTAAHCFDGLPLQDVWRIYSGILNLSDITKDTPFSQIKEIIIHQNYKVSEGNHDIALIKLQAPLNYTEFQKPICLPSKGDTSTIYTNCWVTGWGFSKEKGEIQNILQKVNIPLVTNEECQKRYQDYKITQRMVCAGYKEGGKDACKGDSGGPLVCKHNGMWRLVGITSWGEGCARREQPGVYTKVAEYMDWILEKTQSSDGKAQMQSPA
# protocol: phage binding assay
Numbered stars: 1 amine (or outer) side, 2 acyl side, 3 side chain; on linkers, the order of the positions; unused ones are H or OH. Bridge positions count the residues as written; N and C are the ends. Ends that are not written are not given here. TBMB = c1c(C[*:1])cc(C[*:3])cc1C[*:2]
# label = TRUE if RANK (Kallikrein binding) >= 30 else FALSE

| binder | assignedLabel |
| --- | --- |
| CSYPWRCTHQDLC (linker 1-7-13 via TBMB, on phage) | TRUE |
| CSWAARCTHQDLC (linker 1-7-13 via TBMB, on phage) | FALSE |
| CSWPFRCTHQDLC (linker 1-7-13 via TBMB, on phage) | FALSE |
| CSFLYKCTHQDLC (linker 1-7-13 via TBMB (inferred), on phage) | FALSE |
| CSIPFKCTHQDLC (linker 1-7-13 via TBMB (inferred), on phage) | TRUE |

Now, please, on to the next binder.
Given CSLFDHCTHQDLC (linker 1-7-13 via TBMB, on phage) , state whether its RANK (Kallikrein binding) is at least 30.
TRUE

All values here come from patent US20180362585A1.
